Test system: NCI-H322M lung
Assay Method Text: NCI-60 one-dose screen, 48 h (100 = growth as untreated, 0 = no growth, -100 = all killed)
Experimental Setup: 10 µM
This is part of a sample that, as a whole, favours compounds with a hit. Of some 83,000 tested, about 20% had one in any assay.
Measured Metric: growth (%)
# value in %; strip the unit string

- NC(=O)C12C(=O)NC(=O)C1(C(=O)O)C21CCCC1 (stereo not drawn): 104

Asked: Item under review: CC(C)/C=N/NC(N)=S . Reported growth?
Given back: 101

Asked: Item under review: O=C(NC1CCN(Cc2ccccc2)CC1)c1cc(-c2ccncc2)nc2ccc(Cl)cc12 . Reported growth?
Given back: 32.5

Asked: Item under review: CCOc1nc(-c2ccccc2)cc2c(O)c(C(=O)N/N=C/c3ccc(OC)cc3)[nH]c(=O)c12 . Reported growth?
Given back: 124

Asked: Item under review: CCOC(=O)c1c(C)n(-c2ccc(Cl)cc2)c2ccc(OC(=O)/C=C/c3ccccc3)cc12 . Reported growth?
Given back: 94.8

Asked: Item under review: O=C(Cn1ccc(=O)[nH]c1=O)c1ccc([N+](=O)[O-])o1 . Reported growth?
Given back: 120

Asked: Item under review: CCCCCc1cc[n+](CC(=O)c2ccc(Cl)cc2)cc1 . Reported growth?
Given back: 85.3

Asked: Item under review: O=C(Nc1cccc([N+](=O)[O-])c1)NN1CCCCCC1 . Reported growth?
Given back: 111
